- assayed.system: T1, KGF (hKGF) (Homo sapiens, UniProt P21781 P21781:32-194)
- T1 sequence: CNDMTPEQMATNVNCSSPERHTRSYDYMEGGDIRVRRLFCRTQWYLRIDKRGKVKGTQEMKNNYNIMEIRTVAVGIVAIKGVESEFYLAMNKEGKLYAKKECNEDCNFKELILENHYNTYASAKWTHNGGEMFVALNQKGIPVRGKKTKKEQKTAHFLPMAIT
- experiment.description: cell_activity; Balb/MK mitogenic assay
- measurement.parameters: tags: Upstate Biotechnology; pseudoknot
measurement.type: pKi
The meaning of pKi here: minus log10 of the concentration in molar units.

Kindly indicate its recorded pKi. Item: GGGAGGACGAUGCGGUGGUCUCCCAAUUCUAAACUUUCUCCAUCGUAUC (ssRNA, 2'-F pyrimidines) [14F3'T] 10.47
